The entries below come with measured AUC(0-t) values attached.
Assay Remarks: Rat pharmacokinetic study
Assay type: in vivo, SD rat
Test Conditions: SD, plasma, PO 10 mg/kg

Compound: CCN(c1nc(-c2ccc(F)cc2)c(C#N)s1)c1c2nc(-c3cnc(N4CCC(O)CC4)nc3)ccc2nn1CC [Example 26]
AUC(0-t) [ng·h/mL]: 6230

Compound: CCN(c1nc(-c2ccc(F)cc2)c(C#N)s1)c1c2nc(-c3cnc(N4CCOCC4)nc3)ccc2nn1CC [Example 29]
AUC(0-t) [ng·h/mL]: 7780

Compound: CCc1nc2c(C)cc(N3CCN(CC(=O)N4CC(O)C4)CC3)cn2c1N(C)c1nc(-c2ccc(F)cc2)c(C#N)s1 [GLPG1690]
AUC(0-t) [ng·h/mL]: 2680

Compound: CCN(c1nc(-c2ccc(F)cc2)c(C#N)s1)c1c2nc(-c3cnc(N4CC[C@@H](O)C4)nc3)ccc2nn1CC [Example 28]
AUC(0-t) [ng·h/mL]: 18000

Compound: CCN(c1nc(-c2ccc(F)cc2)c(C#N)s1)c1c2nc(-c3cnc(N4CCCS4(=O)=O)nc3)ccc2nn1CC [Example 17]
AUC(0-t) [ng·h/mL]: 9030
